Source listed as ChEMBL document CHEMBL1201862.

Test system: OVCAR-3
Test: NCI tumour cell line growth inhibition, 48 h
Activity calls are given as the source filed them. Rule as the data show it: active = GI50 up to about 1.1 µM and inactive = higher.
One label from this list, please: active, inactive

Check out these entries, answers already filled in.
>  <compound>
COc1cc(C)cc(OC)c1/C=C/C(=O)O

>  <label>
inactive

$$$$
>  <compound>
N#CCCCC[N+]12CN3CN(CN(C3)C1)C2

>  <label>
inactive

$$$$
>  <compound>
S=P1(N2CCCCC2)Oc2ccc3ccccc3c2-c2c(ccc3ccccc23)O1

>  <label>
inactive

$$$$

Hello, I am checking results. What call was entered for "BrP(NC1CCCCCC1)(c1ccccc1)(c1ccccc1)c1ccccc1" ?
inactive

Hello, I am checking results. What call was entered for "CSC(=N)N1N=C2/C(=C/c3ccccc3)CCC[C@H]2[C@H]1c1ccccc1" ?
inactive

Hello, I am checking results. What call was entered for "CC[C@@]12C=CC(=S)N(CCSc3ccccc3)[C@@H]1c1c(n(S(=O)(=O)c3ccc(OC)cc3)c3ccccc13)CC2" ?
inactive

Hello, I am checking results. What call was entered for "CCOC(=O)/C(=C/c1ccc[nH]1)P(=O)(OCC)OCC" ?
inactive

Hello, I am checking results. What call was entered for CCOc1cc2c(cc1O)CC[C@@H]1[C@@H]2CC[C@]2(C)C(N)CC[C@@H]12 (stereo partly drawn) ?
active

Hello, I am checking results. What call was entered for "CCOC(=O)c1cccnc1C(OC(C)=O)OC(C)=O" ?
inactive

Hello, I am checking results. What call was entered for CC(C)Cc1ccc(C(C)/C=C2\CCC(CN(C)C)C2=O)cc1 (stereo not drawn) ?
inactive

---

Test system: LOX IMVI
Assay: NCI tumour cell line growth inhibition, 48 h
The source made the active and inactive calls. Cut-off read from the data, not from the text of the source: active = GI50 up to about 1.1 µM and inactive = higher. Non-standard residues stand in square brackets, D forms with d. Residues, ends and D or L forms follow the SMILES beside them. *: point of attachment. Cbz = O=C(OCc1ccccc1)*; Boc = CC(C)(C)OC(=O)*; Aib = CC(C)(N)C(=O)O; OBn = c1ccc(CO*)cc1; OtBu = CC(C)(C)O*; βAla = NCCC(=O)O
One label from this list, please: active, inactive

Check out these entries, answers already filled in.
>  <compound>
COc1ccc(/C=N/NC(=O)CSc2nc(-c3ccccc3)c(-c3ccccc3)[nH]2)cc1OC

>  <label>
inactive

$$$$
>  <compound>
COc1ccc2c(c1)CCCN1Cc3ccccc3CC21 (stereo not given)

>  <label>
inactive

$$$$
>  <compound>
COc1ccc(OC)c(N2CC(N)C2=O)c1 (stereo not given)

>  <label>
inactive

$$$$
>  <compound>
CN1CN(c2ccccc2)C2(CCN(CCCC(=O)c3cccs3)CC2)C1=O

>  <label>
inactive

$$$$
>  <compound>
CCC1CCC2C3CC=C4CC(OC(C)=O)C(N)CC4(C)C3CCC12C (stereo not given)

>  <label>
inactive

$$$$

Hello, I am checking results. What call was entered for N#Cc1nc(C2CCC(=O)O2)oc1N (stereo not given) ?
inactive

Hello, I am checking results. What call was entered for "CCOc1ccc(-c2oc(/C=N/NS(=O)(=O)c3ccc(C)cc3)c([N+](=O)[O-])c2-c2ccc(OCC)cc2)cc1" ?
inactive

Hello, I am checking results. What call was entered for COc1c2c(nc3ccccc13)-c1cc3c(c(=O)n1C2)COC(=O)C3(O)CC(=O)N1CCOCC1 (stereo not given) ?
inactive

Hello, I am checking results. What call was entered for "O=C1[C@@H]2C[C@@H](O)CN2C(=O)c2ccccc2N1CCCO" ?
inactive

Hello, I am checking results. What call was entered for CC(C)(C)OC(=O)CC(NC(=O)OC(C)(C)C)C(=O)NC(CCCCNC(=O)OCc1ccccc1)C(=O)NC(C)(C)C(=O)NCCC(=O)OCc1ccccc1 (stereo not given) (Boc-D(OtBu)K(Cbz)[Aib][βAla]-OBn; configuration not given here) ?
inactive

Hello, I am checking results. What call was entered for "CNc1nc(N)cc(O)n1" ?
inactive

Hello, I am checking results. What call was entered for "C=C1C(=O)O[C@@H]2C[C@@]3(C)[C@H](O)CCC(=C)[C@@H]3C[C@H]12" ?
inactive

Hello, I am checking results. What call was entered for "CCCCc1c2cnccc2c(CCCC)c2c1[nH]c1ccccc12" ?
inactive

Hello, I am checking results. What call was entered for "CC(C)OP(=O)(CN(C)/C(F)=N\C(F)(F)F)OC(C)C" ?
inactive

---

System: UACC-62
Assay: NCI tumour cell line growth inhibition, 48 h
Activity calls are given as the source filed them. Rule as the data show it: active = GI50 up to about 1.1 µM and inactive = higher.
quantity kind: GI50

Please review the following examples before continuing.
>  <molecule>
O=C(NC1=C(Cl)C(=O)c2ccccc2C1=O)c1ccccc1

>  <GI50>
24.1 µM (inactive)

$$$$
>  <molecule>
CN1CN(c2ccccc2)C2(CCN(CCCC(=O)c3cccs3)CC2)C1=O

>  <GI50>
> 100 µM (inactive)

$$$$
>  <molecule>
CC1OC(OCC2OC(Oc3c(-c4ccc(O)cc4)oc4cc(O)cc(O)c4c3=O)C(OC3OCC(O)(CO)C3O)C(O)C2O)C(O)C(O)C1O (stereo not given)

>  <GI50>
> 100 µM (inactive)

$$$$
>  <molecule>
CCN(CC)CCCNc1c2c(Cl)cc(Cl)cc2nc2nc(O)nc(C)c12

>  <GI50>
68.2 µM (inactive)

$$$$
>  <molecule>
O=C(N/N=C1\C(=O)Nc2ccc(Br)cc21)/C(O)=C/C(=O)c1ccc(Cl)cc1

>  <GI50>
44.3 µM (inactive)

$$$$
>  <molecule>
Cc1ccc2nc(NC(=O)C(=O)C(C#N)c3ccc(Cl)cc3)sc2c1 (stereo not given)

>  <GI50>
> 50 µM (inactive)

$$$$
>  <molecule>
CCC1=C(C(C)=O)[C@@H]2CCCCC(C(=O)OC)[C@@H]2C1=O (stereo not given in full)

>  <GI50>
> 100 µM (inactive)

$$$$
>  <molecule>
Cc1c(/C=N/N=C/c2[nH]c(C(=O)OC(C)(C)C)c(C)c2C)[nH]c(C(=O)OC(C)(C)C)c1C

>  <GI50>
> 100 µM (inactive)

$$$$
>  <molecule>
Cc1c(C(=O)/C=C/c2cccc3ccccc23)[n+]([O-])c2ccccc2[n+]1[O-]

>  <GI50>
11.3 µM (inactive)

$$$$

Now consider a different molecule.
Field: GI50 (UACC-62). Entry: COC(=O)C(C)Oc1ccc(O)cc1 (stereo not given)
> 100 µM (inactive)

---

Tested on: HCC 2998
Experiment: NCI tumour cell line growth inhibition, 48 h
Calls of active or inactive are those of the source. Cut-off read from the data, not from the text of the source: active = GI50 up to about 1.1 µM and inactive = higher.
quantity kind: GI50

Please review the following examples before continuing.
>  <compound>
CC(C)OP(=O)(CN(C)/C(F)=N\C(F)(F)F)OC(C)C

>  <GI50>
> 100 µM (inactive)

$$$$
>  <compound>
CCC1=CCN(c2ccc(C)cc2)OC1c1ccc(OC)cc1 (stereo unspecified)

>  <GI50>
70.5 µM (inactive)

$$$$
>  <compound>
COc1ccc(OCC(C)(C)O)cc1

>  <GI50>
> 100 µM (inactive)

$$$$
>  <compound>
O/N=C\C(=N/O)Nc1ccc(Cc2ccc(NC(/C=N\O)=N/O)cc2)cc1

>  <GI50>
83.9 µM (inactive)

$$$$
>  <compound>
CN(C)CC1CCCC1=O (stereo unspecified)

>  <GI50>
2.17 µM (inactive)

$$$$

# query: GI50 of entry COc1ccc(-c2c(C#N)c(O)n(C3OC(CO)C(O)C(O)C3O)c(=S)c2C#N)cc1 (stereo unspecified)
> 100 µM (inactive)

---

System: SNB-19
Assay: NCI tumour cell line growth inhibition, 48 h
Activity calls are given as the source filed them. Cut-off read from the data, not from the text of the source: active = GI50 up to about 1.1 µM and inactive = higher.
quantity kind: GI50

# query: GI50 of entry O=C(O)CC(Cc1ccccc1Cl)C(=O)O (stereo unspecified)
> 100 µM (inactive)

---

Test system: SK-MEL-28
Test: NCI tumour cell line growth inhibition, 48 h
Active and inactive are the calls of the source. No stated cut-off is given here; in the data, active = GI50 up to about 1.1 µM and inactive = higher.
One label from this list, please: active, inactive

>  <molecule>
CCOC(=O)C(=O)C=P(c1ccccc1)(c1ccccc1)c1ccccc1

>  <label>
inactive

$$$$
>  <molecule>
CCN(CC)c1ccc(/C=C2/C[N+](C)(C)C/C(=C/c3ccc(N(CC)CC)cc3)C2=O)cc1

>  <label>
inactive

$$$$
>  <molecule>
Cc1ccccc1N1C(=O)C2C=CC(n3[nH]c(=O)n(Cc4ccccc4)c3=O)CC2C1=O (stereo not given)

>  <label>
inactive

$$$$
>  <molecule>
O=C(OCc1ccccc1)N1N=NC2C3CC(OCc4ccccc4)(OCc4ccccc4)C(O3)C21 (stereo not given)

>  <label>
inactive

$$$$
>  <molecule>
CC(C(=O)NCCNC(=O)CCC(=O)N(C)O)C(=O)NCCNC(=O)CCC(=O)N(C)O

>  <label>
inactive

$$$$
>  <molecule>
Clc1ccc2c(c1)CC1C[N+]3=C(CCCC3)C1=C2 (stereo not given)

>  <label>
inactive

$$$$
>  <molecule>
C/C=C/C1=C(Cl)C(=O)[C@@H](Cl)[C@@]1(O)C(=O)OC [(+)-CRYPTOSPORIPSIN]

>  <label>
inactive

$$$$
>  <molecule>
O=c1cc(N2CCOCC2)[nH]c(=O)n1-c1cccc(Cl)c1

>  <label>
inactive

$$$$

Hello, I am checking results. What call was entered for OC1c2ccccc2C(O)C2OC12 (stereo not given) ?
inactive

Hello, I am checking results. What call was entered for "COC(=O)c1ccc(NC(=O)c2cc(OC)c(OC)c(OC)c2)cc1" ?
active
